tested on: human PCSK9 locus; test: Secreted PCSK9 by ELISA (normalized to total cell count) in Huh7 cells transfected with mRNA and gRNA; assay type: cell-based; conditions: 25 ng mRNA:12.5 ng gRNA; paired with LTRP5-ADD-ZIM3 mRNA; Huh7 cells; 6 days post-transfection; normalized to total cell count
Lab note: compare Secreted PCSK9 against 50 ng/mL. Equal or greater, write Criterion met. Smaller, write Criterion not met.

[[record]]
substance = "CGGGGUUGGGAGACCCGGAG (listed as RNA, chemistry not given here) [spacer 6.169, Intron 1]"
group_label = "Criterion met"

[[record]]
substance = "UGGGUCCACCUUGUCUCCUG (listed as RNA, chemistry not given here) [spacer 6.145, Promoter]"
group_label = "Criterion not met"

[[record]]
substance = "TG-06-345 (guide GCCUCGCCGCGGCACAGGUG; listed as RNA, chemistry not given here)"
group_label = "Criterion met"

[[record]]
substance = "ACUGGCCUUAACCUGGCAGC (listed as RNA, chemistry not given here) [spacer 6.141, Promoter]"
group_label = "Criterion not met"


Okay, now this substance:
q: State whether the measured Secreted PCSK9 reaches 50 ng/mL, counting equality as reaching it, for Non-targeting (guide CGAGACGTAATTACGTCTCG; chemistry not given here)
a: Criterion met

###

Each item that follows carries a reported Secreted PCSK9.
test system: human PCSK9 locus; assay: Secreted PCSK9 by ELISA (normalized to total cell count) in Huh7 cells transfected with mRNA and gRNA; format: cell-based; details: 50 ng mRNA:25 ng gRNA; paired with LTRP5-ADD-ZIM3 mRNA; Huh7 cells; 6 days post-transfection; normalized to total cell count

Please review the entries below; each comes with its answer.
[[record]]
substance = "GUGGGAAGGUUCGCGGGGUU (listed as RNA, chemistry not given here) [spacer 6.168, Intron 1]"
endpoint_result = "19.1 ng/mL"

[[record]]
substance = "GAGGAGGACGGCCUGGCCGA (listed as RNA, chemistry not given here) [spacer 6.1, Exon 1]"
endpoint_result = "18.21 ng/mL"

[[record]]
substance = "CGGGGUUGGGAGACCCGGAG (listed as RNA, chemistry not given here) [spacer 6.169, Intron 1]"
endpoint_result = "66.39 ng/mL"


Alright, here's another substance for you.
q: Consider the substance shown here: UCCUCCUGCCUGGUACACAA (listed as RNA, chemistry not given here) [spacer 6.127, Promoter] What is its recorded Secreted PCSK9?
a: 22.57 ng/mL

###

tested on: human PCSK9 locus; assay: Secreted PCSK9 by ELISA (normalized to total cell count) in Huh7 cells transfected with mRNA and gRNA; format: cell-based; conditions: 25 ng mRNA:12.5 ng gRNA; paired with LTRP5-ADD-ZIM3 mRNA; Huh7 cells; 6 days post-transfection; relative to non-targeting gRNA control
Lab note: compare Percent reduction in PCSK9 secretion against 50%. Equal or greater, write TRUE. Smaller, write FALSE.

Example cases with answers are listed next.
[[record]]
substance = "UCCUCCUGCCUGGUACACAA (listed as RNA, chemistry not given here) [spacer 6.127, Promoter]"
group_label = "FALSE"

[[record]]
substance = "GCCAGGCCGUCCUCCUCGGA (listed as RNA, chemistry not given here) [spacer 6.4, Exon 1]"
group_label = "FALSE"

[[record]]
substance = "TG-06-346 (guide CCCACCUGUGCCGCGGCGAG; listed as RNA, chemistry not given here)"
group_label = "FALSE"

[[record]]
substance = "UCGGCCUCCGGGUCUCCCAA (listed as RNA, chemistry not given here) [spacer 6.170, Intron 1]"
group_label = "FALSE"

[[record]]
substance = "GAAGUCUCACUGGUCAGCAG (listed as RNA, chemistry not given here) [spacer 6.146, Promoter]"
group_label = "TRUE"

[[record]]
substance = "UCCCAGUAUCGACAGCCCUU (listed as RNA, chemistry not given here) [spacer 6.123, Promoter]"
group_label = "FALSE"


q: State whether the measured Percent reduction in PCSK9 secretion reaches 50%, counting equality as reaching it, for GAGGAGGACGGCCUGGCCGA (listed as RNA, chemistry not given here) [spacer 6.1, Exon 1]
a: TRUE

q: State whether the measured Percent reduction in PCSK9 secretion reaches 50%, counting equality as reaching it, for GUGGGAAGGUUCGCGGGGUU (listed as RNA, chemistry not given here) [spacer 6.168, Intron 1]
a: FALSE

q: State whether the measured Percent reduction in PCSK9 secretion reaches 50%, counting equality as reaching it, for AGGGAUUUAUACUACAAAGA (listed as RNA, chemistry not given here) [spacer 6.138, Promoter]
a: TRUE

q: State whether the measured Percent reduction in PCSK9 secretion reaches 50%, counting equality as reaching it, for GUGGGCAGCGAGGAGUCCAC (listed as RNA, chemistry not given here) [spacer 6.144, Promoter]
a: TRUE

q: State whether the measured Percent reduction in PCSK9 secretion reaches 50%, counting equality as reaching it, for GAAUCAAUCCUACUGUGGAC (listed as RNA, chemistry not given here) [spacer 6.143, Promoter]
a: TRUE

###

tested on: human PCSK9 locus; assay: Secreted PCSK9 by ELISA (normalized to total cell count) in Huh7 cells transfected with mRNA and gRNA; assay type: cell-based; conditions: 25 ng mRNA:12.5 ng gRNA; paired with LTRP5-ADD-ZIM3 mRNA; Huh7 cells; 6 days post-transfection; relative to non-targeting gRNA control
experimental.endpoint: Percent reduction in PCSK9 secretion (%)
Give your result in % as a bare value.

Please review the entries below; each comes with its answer.
[[record]]
substance = "GAGCAGGCCAUUUCACUCGG (listed as RNA, chemistry not given here) [spacer 6.119, Promoter]"
endpoint_result = 18.66

[[record]]
substance = "GCGCGCCCCUUCACGCGCCC (listed as RNA, chemistry not given here) [spacer 6.159, Exon 1]"
endpoint_result = 13.47

[[record]]
substance = "GCUGAAACAGAUGGAAUACU (listed as RNA, chemistry not given here) [spacer 6.172, Intron 1]"
endpoint_result = 16.75

[[record]]
substance = "AUGGUAGGCACAAGCUCAGC (listed as RNA, chemistry not given here) [spacer 6.133, Promoter]"
endpoint_result = 40.86

[[record]]
substance = "TG-06-348 (guide AGGCAUUCACUCCUUCACCC; listed as RNA, chemistry not given here)"
endpoint_result = 50.1

[[record]]
substance = "GUGCUCGGGUGCUUCGGCCA (listed as RNA, chemistry not given here) [spacer 6.5, Exon 1]"
endpoint_result = 7.19

[[record]]
substance = "UUCCACUGGCCUUAACCUGG (listed as RNA, chemistry not given here) [spacer 6.142, Promoter]"
endpoint_result = 61.73

[[record]]
substance = "AGAAAUCAACUGGACAAGCA (listed as RNA, chemistry not given here) [spacer 6.128, Promoter]"
endpoint_result = 12.57


q: Consider the substance shown here: AGCCCAGUUAGGAUUUGGGA (listed as RNA, chemistry not given here) [spacer 6.149, Promoter] What is its recorded Percent reduction in PCSK9 secretion?
a: 46.21

q: Consider the substance shown here: GCCGGGCCCACCUUUUCAGU (listed as RNA, chemistry not given here) [spacer 6.148, Promoter] What is its recorded Percent reduction in PCSK9 secretion?
a: 37.16

q: Consider the substance shown here: GAGUGAAAUGGCCUGCUCUG (listed as RNA, chemistry not given here) [spacer 6.118, Promoter] What is its recorded Percent reduction in PCSK9 secretion?
a: 23.11

###

test system: human PCSK9 locus; experiment: Secreted PCSK9 by ELISA (normalized to total cell count) in Huh7 cells transfected with mRNA and gRNA; format: cell-based; conditions: 50 ng mRNA:25 ng gRNA; paired with LTRP5-ADD-ZIM3 mRNA; Huh7 cells; 6 days post-transfection; normalized to total cell count
experimental.endpoint: Secreted PCSK9 (ng/mL)
Give your result in ng/mL as a bare value.

[[record]]
substance = "TG-06-351 (guide UUAUGACACAGAACUCAUGC; listed as RNA, chemistry not given here)"
endpoint_result = 56.34


q: Consider the substance shown here: GCUGAAACAGAUGGAAUACU (listed as RNA, chemistry not given here) [spacer 6.172, Intron 1] What is its recorded Secreted PCSK9?
a: 44.44

q: Consider the substance shown here: Non-targeting (guide CGAGACGTAATTACGTCTCG; chemistry not given here) What is its recorded Secreted PCSK9?
a: 82.28

q: Consider the substance shown here: UUCCACUGGCCUUAACCUGG (listed as RNA, chemistry not given here) [spacer 6.142, Promoter] What is its recorded Secreted PCSK9?
a: 30.87

###

Each item that follows carries a reported Percent reduction in PCSK9 secretion.
system: human PCSK9 locus; experiment: Secreted PCSK9 by ELISA (normalized to total cell count) in Huh7 cells transfected with mRNA and gRNA; type: cell-based; settings: 25 ng mRNA:12.5 ng gRNA; paired with LTRP5-ADD-ZIM3 mRNA; Huh7 cells; 6 days post-transfection; relative to non-targeting gRNA control
Give your result in % as a bare value.

Please review the entries below; each comes with its answer.
[[record]]
substance = "TG-06-342 (guide AAUUACAGGCAACAGGAAGG; listed as RNA, chemistry not given here)"
experimental_endpoint = "Percent reduction in PCSK9 secretion"
endpoint_result = 5.6

[[record]]
substance = "GAAUUCUAUGGUAGGCACAA (listed as RNA, chemistry not given here) [spacer 6.134, Promoter]"
experimental_endpoint = "Percent reduction in PCSK9 secretion"
endpoint_result = 19.37

[[record]]
substance = "UGGGUCCACCUUGUCUCCUG (listed as RNA, chemistry not given here) [spacer 6.145, Promoter]"
experimental_endpoint = "Percent reduction in PCSK9 secretion"
endpoint_result = 73.98

[[record]]
substance = "GGGUCUGAGCCUGGAGGAGU (listed as RNA, chemistry not given here) [spacer 6.157, Exon 1]"
experimental_endpoint = "Percent reduction in PCSK9 secretion"
endpoint_result = 54.53

[[record]]
substance = "TG-06-349 (guide CUGUGCCUGGUGCAGUUCCC; listed as RNA, chemistry not given here)"
experimental_endpoint = "Percent reduction in PCSK9 secretion"
endpoint_result = 22.89

[[record]]
substance = "ACUUUGUUUGCAAAGACCUC (listed as RNA, chemistry not given here) [spacer 6.117, Promoter]"
experimental_endpoint = "Percent reduction in PCSK9 secretion"
endpoint_result = 37.62

[[record]]
substance = "AGGGUGUGGGUGCUUGACGC (listed as RNA, chemistry not given here) [spacer 6.154, Promoter]"
experimental_endpoint = "Percent reduction in PCSK9 secretion"
endpoint_result = 65.64

[[record]]
substance = "CAGUACGUUCCAGGCAUUCA (listed as RNA, chemistry not given here) [spacer 6.171, Intron 1]"
experimental_endpoint = "Percent reduction in PCSK9 secretion"
endpoint_result = 21.46

[[record]]
substance = "GGAGCAGGGCGCGUGAAGGG (listed as RNA, chemistry not given here) [spacer 6.158, Exon 1]"
experimental_endpoint = "Percent reduction in PCSK9 secretion"
endpoint_result = 55.48


q: Consider the substance shown here: UUUUACACACCAUGUUCAAG (listed as RNA, chemistry not given here) [spacer 6.129, Promoter] What is its recorded Percent reduction in PCSK9 secretion?
a: 27.47
